# credit: patent US12479816B2

Test system: MDR1 (P-gp)
Assay: BBB penetration potential, MDR1-MDCK permeability
Format: in vitro ADME
Conditions: dog, basolateral to apical, pH 7.4, read-out: BBB penetration potential MDCK B-A 10−6 cm/s
experimentalReadout: Papp B→A at 120 min, 5 μM (×10⁻⁶ cm/s)
One number for each entry, in ×10⁻⁶ cm/s.

A selection of reference data follows.
# molecule, Papp B→A at 120 min, 5 μM / ×10⁻⁶ cm/s
records = [
    ("Cc1cccc(C2CCN(c3cn[nH]c3)CC2)c1 [Compound 34]", 48.6),
    ("O=C1CCCN1Cc1ccc(C2CCN(c3cn[nH]c3)CC2)cc1F [Compound 109]", 77.5),
    ("COc1ccc(C2CCN(c3cn[nH]c3)CC2)cc1 [Compound 20]", 25.7),
]

Consider now this further molecule.
Query block: Read the entry CC(=O)N(C)c1ccc(C2CCN(c3cn[nH]c3)CC2)cc1 [Compound 28] and write its reported Papp B→A at 120 min, 5 μM.
Result block: 40.2

###

I'd appreciate it if you could supply HLM % inh. @ 500 nM values for the items below.
System: 20-HETE formation (CYP4) in HLM
Assay: Inhibition of 20-HETE formation at 250 or 500 nM in HLM microsomal incubations
Format: biochemical, human
Settings: 500 nM compound; HLM 300 μg/ml, AA 100 μM, 20 min
Answers are plain numbers, in %.

A selection of reference data follows.
# molecule, displayUnit, HLM % inh. @ 500 nM
rows = [
    ("Cc1ccc(CC2CCN(c3cn[nH]c3)CC2)cc1 [Compound 116]", "%", 86.40),
    ("Cc1cccc(C2CCN(c3ccn[nH]3)CC2)c1 [Compound 33]", "%", 72.00),
    ("CC(=O)Nc1ccc(C2CCN(c3ccn[nH]3)CC2)cc1 [Compound 29]", "%", 60.00),
    ("COC(=O)c1cccc(C2CCN(c3ccn[nH]3)CC2)c1 [Compound 56]", "%", 0.00),
    ("COc1cc(C2CCN(c3ccn[nH]3)CC2)ccn1 [Compound 16]", "%", 27.00),
    ("Fc1ccccc1SC1CCN(c2cn[nH]c2)CC1 [Compound 92]", "%", 77.3),
    ("Clc1cccc(C2CCN(c3cn[nH]c3)CC2)c1 [Compound 61]", "%", 77.5),
    ("Cc1ccc(C2CCN(c3ccn[nH]3)CC2)cc1 [Compound 23]", "%", 67.40),
    ("c1cnc(C2CCN(c3ccn[nH]3)CC2)nc1 [Compound 9]", "%", 0.00),
    ("COc1ccc(CC2CCN(c3ccn[nH]3)CC2)cc1 [Compound 79]", "%", 60),
]

Report HLM % inh. @ 500 nM for every entry below.
1. Cc1ccccc1C1CCN(c2cn[nH]c2)CC1 [Compound 36]
2. COc1cc(C2CCN(c3cn[nH]c3)CC2)ccn1 [Compound 15]
3. Clc1ccc(C2CCN(c3ccn[nH]3)CC2)cc1 [Compound 62]

Result block:
1: 46.00; 2: 39.00; 3: 60.0

Report HLM % inh. @ 500 nM for every entry below.
1. CS(=O)(=O)Cc1ccc(C2CCN(c3cn[nH]c3)CC2)cc1 [Compound 89]
2. O=[N+]([O-])c1ccc(C2CCN(c3ccn[nH]3)CC2)cc1 [Compound 112]
3. Fc1ccc(C2CCN(c3ccn[nH]3)CC2)cc1 [Compound 18]

Result block:
1. 34.8
2. 21.90
3. 66.00

Report HLM % inh. @ 500 nM for every entry below.
1. COC(=O)c1cccc(C2CCN(c3cn[nH]c3)CC2)c1 [Compound 57]
2. COc1ccc(C2CCN(c3cn[nH]c3)CC2)c(Cl)c1 [Compound 65]

Result block:
1: 0.00; 2: 57.00

Report HLM % inh. @ 500 nM for every entry below.
1. COc1cc(C2CCN(c3ccn[nH]3)CC2)ccc1F [Compound 74]
2. c1cnc(SC2CCN(c3cn[nH]c3)CC2)nc1 [Compound 88]
3. Fc1ccccc1C1CCN(c2ccn[nH]2)CC1 [Compound 50]
4. COc1cc(F)cc(C2CCN(c3ccn[nH]3)CC2)c1 [Compound 73]
5. COCc1ccc(C2CCN(c3cn[nH]c3)CC2)cc1 [Compound 26]
6. COc1ccc(C2CCN(c3cn[nH]c3)CC2)cc1Cl [Compound 64]

Result block:
1. 55
2. 39.8
3. 47.00
4. 61
5. 71.70
6. 88
